system: P12-ICHIKAWA; experiment: selective drug sensitivity score (sDSS, relative to normal bone marrow) (sDSS (score)); higher = more potent and effective on the cell line relative to normal bone marrow cells; settings: 72 h;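 also: ALL cell lines in 384-well plates, five doses spanning 10,000-fold, each plate scaled between vehicle and 100 µmol/L benzalkonium chloride controls, sDSS an adapted area-under-curve metric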
Hi there, I'd appreciate the recorded selective drug sensitivity score for every entry that follows.
// return a plain number; no unit text

Report selective drug sensitivity score, nothing else, for this compound: CCNCCS(=O)(=O)NC[C@@]1(c2ccccc2)SC(NC(=O)C(C)(C)C)=NN1C(=O)C(C)(C)C [Litronesib] (top concentration 1000 nM)
18.5

Report selective drug sensitivity score, nothing else, for this compound: c1cc(CN2CCCNCCNCCCNCC2)ccc1CN1CCCNCCNCCCNCC1 [Plerixafor] (top concentration 10000 nM)
0

Report selective drug sensitivity score, nothing else, for this compound: O=C(O)c1ccc(-c2c[nH]c3ncc(-c4ccccc4)cc23)cc1C1CCCC1 (top concentration 10000 nM)
3.46

Report selective drug sensitivity score, nothing else, for this compound: COc1cc(OC)c(/C=C/S(=O)(=O)Cc2ccc(OC)c(NCC(=O)O)c2)c(OC)c1 [Rigosertib] (top concentration 10000 nM)
10.4

Report selective drug sensitivity score, nothing else, for this compound: CN1CCN(c2ccc3nc(-c4c(N)c5c(F)cccc5[nH]c4=O)[nH]c3c2)CC1 [Dovitinib] (top concentration 10000 nM)
-0.14

Report selective drug sensitivity score, nothing else, for this compound: Cc1cccc(-c2[nH]c(CNc3ccccc3F)nc2-c2ccc3ncnn3c2)n1 [Vactosertib (TEW-7197)] (top concentration 2500 nM)
-0.5

Report selective drug sensitivity score, nothing else, for this compound: Nc1nc(Cl)nc2c1ncn2[C@H]1C[C@H](O)[C@@H](CO)O1 [Cladribine] (top concentration 1000 nM)
-5.24
